Listing of entries alongside the reported pIC50.
System: human JAK3 (Homo sapiens (Human), UniProt P52333)
Sequence (P52333 whole entry): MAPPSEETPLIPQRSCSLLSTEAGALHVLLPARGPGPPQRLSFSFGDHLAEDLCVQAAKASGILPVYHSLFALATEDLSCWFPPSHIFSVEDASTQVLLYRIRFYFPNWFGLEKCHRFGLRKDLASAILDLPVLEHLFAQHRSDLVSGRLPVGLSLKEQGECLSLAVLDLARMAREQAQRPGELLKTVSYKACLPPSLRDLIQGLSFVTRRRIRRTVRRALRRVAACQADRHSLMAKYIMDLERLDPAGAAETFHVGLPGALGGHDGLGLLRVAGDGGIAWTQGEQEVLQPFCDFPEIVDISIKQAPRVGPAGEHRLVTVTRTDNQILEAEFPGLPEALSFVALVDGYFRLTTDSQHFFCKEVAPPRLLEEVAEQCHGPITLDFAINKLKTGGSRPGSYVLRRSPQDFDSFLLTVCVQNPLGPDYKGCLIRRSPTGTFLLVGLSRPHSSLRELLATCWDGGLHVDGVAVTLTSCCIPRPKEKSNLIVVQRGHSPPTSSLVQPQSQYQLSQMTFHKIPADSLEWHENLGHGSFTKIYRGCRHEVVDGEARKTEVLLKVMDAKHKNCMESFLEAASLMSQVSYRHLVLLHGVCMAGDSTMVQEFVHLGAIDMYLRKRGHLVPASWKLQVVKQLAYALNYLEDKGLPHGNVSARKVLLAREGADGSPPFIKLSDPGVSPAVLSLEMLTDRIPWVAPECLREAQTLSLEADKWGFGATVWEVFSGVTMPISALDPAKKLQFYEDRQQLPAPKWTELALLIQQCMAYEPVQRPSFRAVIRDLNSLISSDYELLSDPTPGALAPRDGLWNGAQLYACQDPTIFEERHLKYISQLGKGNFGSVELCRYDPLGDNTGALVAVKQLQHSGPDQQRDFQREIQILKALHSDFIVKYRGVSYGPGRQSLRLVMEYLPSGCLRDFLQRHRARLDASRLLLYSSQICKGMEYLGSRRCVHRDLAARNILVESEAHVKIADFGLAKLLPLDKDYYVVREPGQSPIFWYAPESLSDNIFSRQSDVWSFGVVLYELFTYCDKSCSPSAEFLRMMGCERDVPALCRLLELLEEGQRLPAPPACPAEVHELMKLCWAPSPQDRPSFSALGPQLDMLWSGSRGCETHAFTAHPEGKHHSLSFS
Experiment Summary: JAK3 kinase inhibitory activity, ADP Glo kinase assay
Experimental Conditions: recombinant purified human JAK3, ATP 5 uM, Poly(Glu4,Tyr1) peptide, 1 hour 30° C.
For clarity, pIC50 is expressed as the negative log10 of concentration in mol/L.

See these solved cases before continuing.
# Compound, pIC50
measured = [
    ("C=CC(=O)N1CC[C@H](F)[C@H](Oc2nc(Nc3cnn(CC(F)F)c3)nc3[nH]cc(C)c23)C1 (racemic)", 9.15),
    ("C=CC(=O)N1CC[C@@H](F)[C@@H](Oc2nc(Nc3cnn(C4CCNCC4)c3)nc3[nH]ccc23)C1", 9.10),
]

Asked: Return reported pIC50; argument: C=CC(=O)N1CC[C@@H](F)[C@H](Oc2nc(Nc3cnoc3)nc3[nH]ccc23)C1 (racemic)
Given back: 9.15

###

System: human BTK (Homo sapiens (Human))
Sequence (Q06187 whole entry): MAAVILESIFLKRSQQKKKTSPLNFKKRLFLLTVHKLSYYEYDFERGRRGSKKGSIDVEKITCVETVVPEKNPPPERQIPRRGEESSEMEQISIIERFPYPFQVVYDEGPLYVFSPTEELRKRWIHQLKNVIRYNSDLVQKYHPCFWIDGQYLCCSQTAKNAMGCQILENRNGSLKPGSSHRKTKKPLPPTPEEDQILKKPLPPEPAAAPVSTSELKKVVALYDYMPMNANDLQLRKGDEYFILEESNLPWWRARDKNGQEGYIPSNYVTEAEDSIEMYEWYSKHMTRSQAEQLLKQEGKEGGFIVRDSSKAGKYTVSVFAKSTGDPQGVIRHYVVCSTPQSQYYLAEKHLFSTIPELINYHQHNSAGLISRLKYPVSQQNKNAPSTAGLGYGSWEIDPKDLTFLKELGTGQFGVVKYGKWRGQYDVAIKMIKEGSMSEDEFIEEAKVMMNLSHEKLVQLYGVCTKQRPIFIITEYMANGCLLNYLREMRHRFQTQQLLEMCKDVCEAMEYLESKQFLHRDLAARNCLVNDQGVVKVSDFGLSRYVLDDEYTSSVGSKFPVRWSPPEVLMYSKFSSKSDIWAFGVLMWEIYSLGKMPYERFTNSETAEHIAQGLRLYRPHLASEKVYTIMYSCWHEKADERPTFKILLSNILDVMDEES
Experiment Summary: BTK kinase inhibitory activity, ADP Glo kinase assay
Experimental Conditions: read-out: BTK IC50; recombinant purified human BTK, ATP 10 uM, Poly(Glu4,Tyr1) peptide, 1 hour 30° C.
Listing of entries alongside the reported IC50.

See these solved cases before continuing.
# Substance Smiles, System, Reported Measurement
measured = [
    ("C=CC(=O)N1CC[C@H](F)[C@H](Oc2nc(Nc3cnn(C4CCOCC4)c3)nc3[nH]ccc23)C1", "human BTK (Homo sapiens (Human))", "> 80 nM"),
    ("C=CC(=O)N1CC[C@@H](F)[C@H](Oc2nc(Nc3cnn(CC)c3)nc3[nH]ccc23)C1", "human BTK (Homo sapiens (Human))", "~400 nM"),
]

Continue with the next molecule.
Asked: Return reported IC50; argument: `C=CC(=O)N1CC[C@H](F)[C@H](Oc2nc(Nc3cc(C)ns3)nc3[nH]ccc23)C1`
Given back: > 400 nM
